Provenance of the data: ChEMBL document CHEMBL3885861

Reported values of TC for individual entries
# Species: Rattus norvegicus
# protocol details: Open TG-GATES - Regimen: Daily Repeat
# Type: toxicity, organism-based, Sprague-Dawley
# Set-up: regimen Daily Repeat, gender Male, age 6 weeks
# reported conditions: in vivo, po, 0 mg/kg, […], tissue Plasma, route gavage, dose level Control, time 14 day
Report only the number, with the unit mg/dL understood.

Worked set:
[[record]]
compound = "CCOC(=O)CCC(=O)O[C@H]1[C@H](O[C@@H]2[C@@H](C)[C@H](O[C@H]3C[C@@](C)(OC)[C@@H](O)[C@H](C)O3)[C@@H](C)C(=O)O[C@H](CC)[C@@](C)(O)[C@H](O)[C@@H](C)C(=O)[C@H](C)C[C@@]2(C)O)O[C@H](C)C[C@@H]1N(C)C [ERYTHROMYCIN ETHYLSUCCINATE]"
endpoint = "TC"
data_value = 73

[[record]]
compound = "CC1=C(/C=C/C(C)=C/C=C/C(C)=C/CO)C(C)(C)CCC1"
endpoint = "TC"
data_value = 74.8

[[record]]
compound = "CN(C)CCCN1c2ccccc2CCc2ccccc21"
endpoint = "TC"
data_value = 72.6


TC for CN1C(=O)CN=C(c2ccccc2)c2cc(Cl)ccc21 is 72

Summary for this compound, NC(N)=Nc1nc(CSCCC(N)=NS(N)(=O)=O)cs1 : TC is 75

Notebook: O=C(CCCN1CCC(O)(c2ccc(Cl)cc2)CC1)c1ccc(F)cc1 , TC read as 76.2

# compound CCCNC(=O)NS(=O)(=O)c1ccc(Cl)cc1 [CHLORPROPAMIDE] ; its TC = 77.8

Reported TC for NNC(=O)c1ccncc1 was 76.4
